Listed here: items and their measured log10 TGI.
- System: RXF 393 renal
- test details: NCI tumour cell line growth inhibition, 48 h
quantity: log10 TGI (log10 of the value in µM)

• CC(C)(C)c1ccc(C(C)(C)C)c(N2C(=O)[C@@H]3[C@@H]4C=C[C@@H](C4)[C@]3(C)C2=O)c1 = 1.51
• COc1ccc(-c2cc(-c3ccccc3)nc(SCCCC(=O)NO)n2)cc1OC = 0.44
• O=C1c2[nH]c3ccccc3c2CCN2CCCCC12 (stereo unspecified) = 1.79
• c1cc2c(s1)SSSSS2 = 1.62
• Cc1nc2ccccn2c1N=Nc1ccc(C(=O)NN)cc1 = 1.78
• C#CCn1cnc2cnc(Nc3cccc(NC(=O)CCl)c3)nc21 = 1.40

* * *

- System: ACHN renal
- test details: NCI tumour cell line growth inhibition, 48 h; in the data active = GI50 below about 0.43 µM; inactive = the rest
Outcomes: Yes (active), No (inactive)

- Clc1ccc2c(c1)C(Br)c1cc(Cl)cc(Cl)c1-2 (configuration not stated): No
- O=C([O-])c1cc(I)cc(I)c1[OH2+].O=C([O-])c1cc(I)cc(I)c1[OH2+].[Mn+2]: No
- NCCCOc1cc2ccccc2cc1C(=O)NCCOc1nc2ccccc2cc1C(=O)Nc1ccc(Cl)cc1O: No
- COc1cc2c(cc1I)-c1c(cc(OC)c(OC)c1OC)CC[C@@H]2NC(C)=O: No
- c1ccc([P+](c2ccccc2)(c2ccccc2)c2ccc3c4ccc([P+](c5ccccc5)(c5ccccc5)c5ccccc5)c5cccc(c6cccc2c63)c54)cc1: No
- COc1cc(/C=C/c2cc(/C=C/c3ccc(O)c(OC)c3)n(-c3c(Cl)cccc3Cl)c(=O)n2)ccc1O: No
- CCn1c(=O)c(Oc2ccc(F)cc2F)cc2cnc(NC3CCOCC3)nc21: No
- CCC(CC)c1nc(Nc2cccc(OC)c2)c2ccccc2n1: No
- CC1(C)CN(c2cc(C(F)(F)F)cc3cncn23)CCC12NC(=O)NC2=O (configuration not stated): No
- O=c1c2cc(F)ccc2sc2c(Nc3ccncc3)nc3ccccc3c12: No
- Cn1ccc(=O)c2c(O)c3ccccc3c(O)c21: No
- Nc1nonc1C(=Nc1ccc(F)c(Cl)c1)NO: No
- Nc1nc(N)c(N=Nc2ccccc2)c(-c2ccccc2)n1: No
- C#CCn1cnc2cnc(Nc3cccc(NC(=O)CCl)c3)nc21: No
- COC(=O)[C@@H](C)C[C@H](Cc1ccc2ccccc2c1)NC(=O)c1csc([C@@H](C[C@H](C(C)C)N(C)C(=O)[C@@H](NC(=O)[C@H]2CCCCN2C)C(C)C)OC(C)=O)n1: Yes
- O=C1C=CC(=O)c2cc3cc(CO)ccc3cc21: No
- O=C(/C=C/c1ccc(Cl)cc1)c1ccc(Nc2nc(Nc3ccc(F)cc3)nc(Nc3ccc(F)cc3)n2)cc1: No

* * *

- Test system: SNB-75 CNS
- test details: NCI tumour cell line growth inhibition, 48 h
Listed here: items and their measured GI50.
quantity: GI50

• NCCCCCCCCCCn1c2c(c3ccccc3c1=O)C(=O)c1ccccc1-2 = 5.01 µM
• C[n+]1c(-c2ccccc2)c2cc(N)ccc2c2ccccc21 = 1.28 µM
• CCO/C=N/C1=C(C#N)C(c2ccc(OC)cc2)c2sc3c(F)cccc3c2O1 (centres undefined) = 1.66 µM
• Cn1ccc(=O)c2c(O)c3ccccc3c(O)c21 = > 100 µM
• COc1ccc(-c2cc(-c3ccccc3)nc(SCCCC(=O)NO)n2)cc1OC = 1.09 µM
• CCOC(=O)N1C/C(=C/c2ccc(Cl)cc2)C(=O)/C(=C/c2ccc(Cl)cc2)C1 = 3.15 µM
• O=C(c1ccc(Cl)cc1)c1no[n+]([O-])c1C(=O)c1ccc(Cl)cc1 = 15 µM
• N#Cc1c(-c2ccccc2)cc(-c2ccccc2)n(CCCC(=O)NO)c1=O = 1.24 µM
• O=C(Nc1nc(-c2ccc(Cl)cc2)cs1)c1cc(-c2ccc(Br)cc2)nc2ccc(Cl)cc12 = 3.63 µM
• [N-]=[N+]=NCCCn1c2c(c3cc4c(cc3c1=O)OCO4)C(=O)c1ccccc1-2 = 72.8 µM
• Clc1ccc(OCc2nn3c(CCCCc4nnc5sc(COc6ccc(Cl)cc6Cl)nn45)nnc3s2)c(Cl)c1 = 33.3 µM
• CCN(CC)Cc1cc(Nc2c3ccc(Cl)cc3nc3ccc(OC)cc23)ccc1O = 5.07 µM
• c1ccc([P+](c2ccccc2)(c2ccccc2)c2ccc3c4ccc([P+](c5ccccc5)(c5ccccc5)c5ccccc5)c5cccc(c6cccc2c63)c54)cc1 = 0.435 µM
• NCCCOc1cc2ccccc2cc1C(=O)NCCOc1nc2ccccc2cc1C(=O)Nc1ccc(Cl)cc1O = 1.1 µM

* * *

- Tested on: COLO 205 colon
- test details: NCI tumour cell line growth inhibition, 48 h
quantity: log10 of TGI (log10 of the value in µM)

* COc1ccc(CC(C)=C(c2ccc(OCCN3CCCCCC3)cc2)c2ccc(OCCN3CCCCCC3)cc2)cc1 | -0.74
* COc1ccc(/C(=N/O)C(c2ccc(OC)cc2)C2C(=O)Oc3ccccc32)cc1 (stereo not given) | 0.85
* NCCCCCCCCCCn1c2c(c3ccccc3c1=O)C(=O)c1ccccc1-2 | 1.10
* CCCCCC(=O)N[C@H]1CCc2cc(O)c(O)c(O)c2-c2ccc(SC)c(=O)cc21 | 1.65
* NCCCOc1cc2ccccc2cc1C(=O)NCCOc1nc2ccccc2cc1C(=O)Nc1ccc(Cl)cc1O | 0.38
* O=C1C(Cl)C(c2cc3cc(Br)ccc3nc2Cl)N1c1ccc(F)c(Cl)c1 (stereo not given) | 1.35

* * *

- Tested on: OVCAR-3 ovarian
- test details: NCI tumour cell line growth inhibition, 48 h
quantity: GI50

- c1ccc2cc(C[n+]3ccn(CCCCCCCCCCCCn4cc[n+](Cc5ccc6ccccc6c5)c4)c3)ccc2c1: 0.763 µM
- Cn1ncc(NC(=O)c2nc(-c3c(F)cccc3F)sc2N)c1N1CC[C@@H](N)[C@H](F)CC1: 11.1 µM
- CC(C)=[CH][Sb]([Br])([CH]=C(C)C)([CH]=C(C)C)[c]1ccccc1: 4.32 µM
- CCC(CC)c1nc(Nc2cccc(OC)c2)c2ccccc2n1: 5.9 µM
- CCN(CC)Cc1cc(Nc2c3ccc(Cl)cc3nc3ccc(OC)cc23)ccc1O: 7.59 µM
- CC(=O)/C=C/c1ccc(OCc2ccc(C(C)(C)C)cc2)cc1: > 1000 µM

* * *

Listed here: items and their measured TGI.
- System: NCI/ADR-RES ovarian
- test details: NCI tumour cell line growth inhibition, 48 h
quantity: TGI

• O=c1c(-c2ccccc2)c2n(c3ccccc13)CCN2 = > 100 µM
• CC(=O)Oc1c(-c2ccccc2)oc2ccccc12 = 9.29 µM
• CCOC(=O)N1C/C(=C/c2ccc(Cl)cc2)C(=O)/C(=C/c2ccc(Cl)cc2)C1 = 95.6 µM
• CC1=CC(C)(C)[C@H]2O[C@@]3(O)C[C@]4(C)[C@H]5C[C@@](C(C)C)(O[C@H]4c4ccoc4)O[C@H]4[C@]5(C3)O[C@@]1(O)[C@]24O = > 100 µM
• O=C1C(Cl)=C(Cl)C(=O)C2=C1C1c3ccccc3C2c2ccccc21 = > 100 µM
• C[C@@]1(Br)C[C@@](C)(Cl)[C@@H](Br)CC1/C=C/Cl (stereo partly specified) = 25.8 µM
• CC(=O)O[C@H]1C(=O)[C@@]2(C)[C@H]([C@H](OC(=O)c3ccccc3)[C@]3(O)C[C@H](OC(=O)[C@H](O)[C@@H](NC(=O)c4ccccc4)c4ccccc4C)C(C)=C1C3(C)C)[C@]1(OC(C)=O)CO[C@@H]1C[C@@H]2O = > 25 µM
• c1ccc2cc(C[n+]3ccn(CCCCCCCCCCCCn4cc[n+](Cc5ccc6ccccc6c5)c4)c3)ccc2c1 = 25 µM
• Cn1ncc(NC(=O)c2nc(-c3c(F)cccc3F)sc2N)c1N1CC[C@@H](N)[C@H](F)CC1 = > 89.8 µM
• [N-]=[N+]=NCCCn1c2c(c3cc4c(cc3c1=O)OCO4)C(=O)c1ccccc1-2 = > 100 µM
• Nc1nonc1C(=Nc1ccc(F)c(Cl)c1)NO = > 100 µM
• C/C(=C\COc1cc(O)c2c(c1)C(=O)c1cc(C)cc(O)c1C2=O)CCC1OC1(C)C (stereo unspecified) = > 100 µM
• NC1CCCCC1N.Nc1c(N=Nc2ccc(-c3ccc(N=Nc4cc(S(=O)(=O)[O-])c5ccccc5c4N)cc3)cc2)cc(S(=O)(=O)[O-])c2ccccc12.[OH3+].[OH3+].[Pt+4] = 43 µM
• c1cc2c(s1)SSSSS2 = 46.4 µM
• CC(=O)NCCC1CNc2ccccc21 (stereo unspecified) = > 100 µM
• CCC(=O)/C=C/c1ccccc1 = > 100 µM

* * *

- Tested on: HS 578T breast
- test details: NCI tumour cell line growth inhibition, 48 h
Cut-off 30 µM on TGI, inclusive. At or above means t; below means f.

• NCCCOc1cc2ccccc2cc1C(=O)NCCOc1nc2ccccc2cc1C(=O)Nc1ccc(Cl)cc1O = f
• CC(C)(Cl)C(Br)CCC(C)(Br)C(Br)CBr (stereo unspecified) = t
• C[n+]1c(-c2ccccc2)c2cc(N)ccc2c2ccccc21 = f
• CC/C=C/C[C@H](O[Si](C)(C)C(C)(C)C)[C@H]1C[C@H]2O[C@H]([C@@H](O)C#C[Si](C)(C)C)C[C@H]2O1 = t
• Cn1ncc(NC(=O)c2nc(-c3c(F)cccc3F)sc2N)c1N1CC[C@@H](N)[C@H](F)CC1 = f
• O=C1C(Cl)=C(N2C(=O)CCC2=O)C(=O)c2ccccc21 = t
• CCN(CC)Cc1cc(Nc2c3ccc(Cl)cc3nc3ccc(OC)cc23)ccc1O = t
• CCOC(=O)c1csc(NC(=O)CN(C)C)n1 = t
• O=C1c2[nH]c3ccccc3c2CCN2CCCCC12 (stereo unspecified) = t
• COc1ccc(C(=O)NCCC2CN(S(=O)(=O)C(F)(F)F)c3ccccc32)c(OC)c1 (stereo unspecified) = t
• O=C(CC1(O)C(=O)Nc2c(Cl)ccc(Cl)c21)c1ccco1 (stereo unspecified) = t
• COc1cc(/C=C/c2cc(/C=C/c3ccc(O)c(OC)c3)n(-c3c(Cl)cccc3Cl)c(=O)n2)ccc1O = t
• CCn1cc(C(=O)O)c(=O)c2cc(F)c(N3CCN(CN4C(=O)/C(=N\c5ncc(Cc6cc(OC)c(OC)c(OC)c6)c(N)n5)c5cc(Cl)ccc54)CC3)cc21 = t
• COc1cc2ccnc(C=O)c2cc1OC = t
• Cc1cnc(-n2c(C)nc3cc(Cl)ccc3c2=O)s1 = t
• O=c1c(-c2ccccc2)c2n(c3ccccc13)CCN2 = t
• Oc1ccc(O)c(Cc2ccccc2)c1 = t
• O=C1Nc2ccccc2/C1=C\c1c(Cl)nc2sccn12 = t
• O=C(Nc1ccc(OCc2nnc(-c3ccc(Cl)cc3)o2)c(F)c1)c1ccc(Cl)c(C(F)(F)F)c1 = t
• CCOC(=O)C1C(=O)C=C(c2cc(C)ccc2O)CC1c1cccc(Cl)c1 (stereo unspecified) = t
